Listed next: entries and their corresponding hERG current change (%, negative = inhibition) at 10uM.
target: human ether-à-go-go-related gene (hERG) potassium channel (human, UniProt Q12809); assay: primary screen, population patch clamp on CHO cells stably expressing hERG; higher = less effect of the substance;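 also: peak tail current of the secondary pulse compared with the same well before compound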
Sequence (Q12809 whole entry, looked up): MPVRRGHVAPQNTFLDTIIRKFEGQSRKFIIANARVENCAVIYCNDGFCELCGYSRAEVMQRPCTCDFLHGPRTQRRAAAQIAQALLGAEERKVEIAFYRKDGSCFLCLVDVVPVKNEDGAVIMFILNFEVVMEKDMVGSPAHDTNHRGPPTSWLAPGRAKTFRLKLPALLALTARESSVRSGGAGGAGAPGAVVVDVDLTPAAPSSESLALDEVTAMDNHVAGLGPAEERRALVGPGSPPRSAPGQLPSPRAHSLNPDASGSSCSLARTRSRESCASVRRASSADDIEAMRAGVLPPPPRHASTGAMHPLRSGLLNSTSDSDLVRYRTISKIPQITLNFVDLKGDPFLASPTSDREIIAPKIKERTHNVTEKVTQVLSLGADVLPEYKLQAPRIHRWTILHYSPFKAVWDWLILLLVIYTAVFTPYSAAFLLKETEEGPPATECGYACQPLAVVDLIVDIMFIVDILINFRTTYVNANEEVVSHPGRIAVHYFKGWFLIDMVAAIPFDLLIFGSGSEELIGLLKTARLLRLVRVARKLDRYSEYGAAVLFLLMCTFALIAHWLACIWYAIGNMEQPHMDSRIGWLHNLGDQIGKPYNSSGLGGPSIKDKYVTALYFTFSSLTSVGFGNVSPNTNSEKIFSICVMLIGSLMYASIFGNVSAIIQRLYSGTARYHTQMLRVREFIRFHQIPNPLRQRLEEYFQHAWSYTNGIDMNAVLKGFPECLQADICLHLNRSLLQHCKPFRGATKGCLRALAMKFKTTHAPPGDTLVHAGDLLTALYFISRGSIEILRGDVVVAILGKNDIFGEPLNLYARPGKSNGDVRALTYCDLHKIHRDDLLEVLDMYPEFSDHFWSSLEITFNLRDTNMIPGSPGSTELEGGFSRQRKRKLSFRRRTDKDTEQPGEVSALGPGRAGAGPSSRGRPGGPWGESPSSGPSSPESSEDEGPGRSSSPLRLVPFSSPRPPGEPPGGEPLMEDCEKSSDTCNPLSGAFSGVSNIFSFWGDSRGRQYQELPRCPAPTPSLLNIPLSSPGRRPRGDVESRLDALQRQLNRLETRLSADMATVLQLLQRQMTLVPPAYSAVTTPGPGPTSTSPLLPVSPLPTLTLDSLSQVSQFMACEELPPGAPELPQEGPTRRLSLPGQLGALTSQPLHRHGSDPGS
Hit rate of the full screen: of about 310,000 compounds, about 14,000 (4.5%) showed an effect of 50% or more. The effect is printed as a negative number. For the sample, strong results were picked, then their nearest neighbours and some compounds at random.
Please reply with the bare figure in % and do not write the unit itself.

Before answering, review these 6 worked examples.
# compound, unit_spec, reported_result
rows = [
    ("Cc1cc(C)cc(NC(=S)NC2CC3CCCC(C2)N3CC(C)C)c1 (centres unmarked)", "%", -7.32),
    ("Cc1cc(C)cc(NC(=S)NC2CC3CCCC(C2)N3C2CCCC2)c1 (centres unmarked)", "%", -77.5),
    ("Nc1c(C(=O)O)cnc2nc(N3CCOCC3)nn12", "%", 21.7),
    ("COc1ccc2oc(C)c(C(=O)NN)c2c1", "%", -1.4),
    ("COc1ccc2oc(C(=O)OCC(=O)N3CCCC(C)C3)c(C)c2c1 (centres unmarked)", "%", -39.4),
    ("CCOC(=O)CCC(=O)c1c(C)oc2ccc(OC)cc12", "%", -57.2),
]

[in] I have this compound here, CCOC(=O)c1c(CN2CCCCC2)oc2ccc(O)cc12.Cl , and I need its recorded hERG current change (%, negative = inhibition) at 10uM.
[out] -54.3

[in] Similarly, CCOC(=O)c1c(CN2CCCCC2)oc2ccc(OC)cc12 ?
[out] -61.6

[in] Similarly, COc1ccc2oc(C(=O)OC(C)C(=O)N3CCC(C)CC3)c(C)c2c1 (centres unmarked) ?
[out] -5.44

[in] Similarly, CCOC(=O)c1c(CN2CCC(C)CC2)oc2ccc(OC)cc12 ?
[out] -51.2

[in] Similarly, O=C(CN(Cc1ccco1)S(=O)(=O)c1cccs1)Nc1ccccc1C(F)(F)F ?
[out] -32.8
